assay: Study 1: two-way crossover study of oral and intravenous baclofen in healthy adult volunteers; assay type: in vivo, human; conditions: human, plasma; 10 mg oral vs 5 mg IV, n=9, fasting; read-out: estimated mean absolute bioavailability of oral baclofen
MEASUREMENT_KIND: bioavailability

Query NCC(CC(=O)O)c1ccc(Cl)cc1 (stereo not shown) [baclofen, 4-amino-3-[4-chlorophenyl] butanoic acid] yields bioavailability of 74%

---

Experiment: Combined results of the two pilot pharmacokinetic studies (first in human and dose escalation)
Assay type: in vivo
Details: human, plasma, po, 45 subjects; read-out: mean bioavailability of oral baclofen following a single dose
Description: Two pilot studies were conducted to characterize baclofen pharmacokinetics and safety following intravenous administration and to access absolute bioavailability of IV and oral baclofen. These studies are described in: A Pilot Study Assessing Pharmacokinetics and Tolerability of Oral and Intravenous Baclofen in Healthy Adult Volunteers, Suresh K. Agarwal, Robert L. Kriel, James C. […]
MEASUREMENT_KIND: bioavailability

Query NCC(CC(=O)O)c1ccc(Cl)cc1 (stereo not shown) [baclofen, 4-amino-3-[4-chlorophenyl] butanoic acid] yields bioavailability of ~86%
